# Solubility L (at room temperature) annotations
method-notes: Solubility L of dye in liquid crystal mixture at room temperature (saturated solution, comparison of extinctions)
Format: physicochemical
settings: liquid crystal mixture ZLI 1957/5
Please state the figure in %; there is no need to write the unit.

[
  {
    "molecule": "CCCCCCCCSc1nsc(N=Nc2ccc(N=Nc3ccc(N(C)CCCC)cc3)cc2)n1 [Example 1]",
    "readout-value": 1.5
  },
  {
    "molecule": "CCCCCCCCSc1nsc(N=Nc2cc(C)c(N=Nc3ccc(N(C)C)cc3C)cc2C)n1 [Example 8]",
    "readout-value": 1.5
  },
  {
    "molecule": "CCCCCCCCSc1nsc(N=Nc2ccc(N=Nc3ccc(NCc4ccc(C5CCC(CCCC)CC5)cc4)c4ccccc34)cc2)n1 (stereo not shown) [Example 18]",
    "readout-value": 0.9
  }
]

q: So what's the measured Solubility L (at room temperature) for this one? CCCCCCCCSc1nsc(N=Nc2cc(C)c(N=Nc3ccc(NCc4ccc(C5CCC(CCCC)CC5)cc4)c4ccccc34)cc2C)n1 (stereo not shown) [Example 15]
a: 1.4

====

method-notes: Solubility L of dye in liquid crystal mixture at room temperature (saturated solution, comparison of extinctions)
Assay type: physicochemical
settings: ZLI 2452 (Table 2)
recorded-endpoint: Solubility L (at room temperature) (%)
Enter your answer as a number in %; do not include the unit.

[
  {
    "substance-smiles": "CCCCCCCCCCCCNc1ccc(N=Nc2cc(C)c(N=Nc3nc(SCCCCCCC)ns3)cc2C)c2ccccc12",
    "Solubility L (at room temperature) (%)": 0.6
  },
  {
    "substance-smiles": "CCCCCCCCSc1nsc(N=Nc2cc(C)c(N=Nc3ccc(NCc4ccc(CCCCC)cc4)c4ccccc34)cc2C)n1",
    "Solubility L (at room temperature) (%)": 0.4
  },
  {
    "substance-smiles": "CCCCCCCCSc1nsc(N=Nc2cc(C)c(N=Nc3ccc(NCCc4ccccc4)c4ccccc34)cc2C)n1",
    "Solubility L (at room temperature) (%)": 0.6
  },
  {
    "substance-smiles": "CCCCCCCCSc1nsc(N=Nc2cc(C)c(N=Nc3ccc(Nc4ccc(CCCC)cc4)c4ccccc34)cc2C)n1",
    "Solubility L (at room temperature) (%)": 3.2
  }
]

q: Please give the measured Solubility L (at room temperature) for this compound: CCCCCCCCNc1ccc(N=Nc2cc(C)c(N=Nc3nc(SCCCCCCCC)ns3)cc2C)c2ccccc12
a: 0.8

====

method-notes: Solubility L of dye in liquid crystal mixture at room temperature (saturated solution, comparison of extinctions)
Type: physicochemical
settings: ZLI 2452 (Table 2)
Solubility L (at room temperature) less than 1% is Fulfilled; Solubility L (at room temperature) greater than or equal to 1% is Not fulfilled.

Worked cases, answers included:
[
  {
    "molecule": "CCCCC1CCC(c2ccc(CNc3ccc(N=Nc4ccc(N=Nc5nc(SCC(CC)CCCC)ns5)c(C)c4)c4ccccc34)cc2)CC1 (stereo not shown) [Example 45]",
    "class-assignment": "Not fulfilled"
  },
  {
    "molecule": "CCCCCCCCCCCCNc1ccc(N=Nc2cc(C)c(N=Nc3nc(SC)ns3)cc2C)c2ccccc12 [Example 26]",
    "class-assignment": "Not fulfilled"
  },
  {
    "molecule": "CCCCC1CCC(c2ccc(CNc3ccc(N=Nc4cc(C)c(N=Nc5nc(SCC(CC)CCCC)ns5)cc4C)c4ccccc34)cc2)CC1 (stereo not shown) [Example 46]",
    "class-assignment": "Fulfilled"
  },
  {
    "molecule": "CCCCCCCCNc1ccc(N=Nc2cc(C)c(N=Nc3nc(SCCCCCCCC)ns3)cc2C)c2ccc(C)nc12 [Example 19]",
    "class-assignment": "Fulfilled"
  },
  {
    "molecule": "CCCCCCCCCCCCN(C)c1ccc(N=Nc2cc(C)c(N=Nc3nc(CCCCCCC)ns3)cc2C)c2ccccc12 [Example 22]",
    "class-assignment": "Not fulfilled"
  },
  {
    "molecule": "CCCCCCCCCCCCNc1ccc(N=Nc2cc(C)c(N=Nc3nc(SCCCCCCCCCCCC)ns3)cc2C)c2ccccc12 [Example 40]",
    "class-assignment": "Not fulfilled"
  }
]

Now, please, on to the next molecule.
q: Item CCCCC1CCC(c2ccc(CNc3ccc(N=Nc4ccc(N=Nc5nc(SCC(CC)CCCC)ns5)cc4)c4ccccc34)cc2)CC1 (stereo not shown) [Example 44] : Solubility L (at room temperature) beneath 1%, strictly?
a: Not fulfilled

====

Listed here are molecules together with their documented Degree of order S (at room temperature).
method-notes: Degree of order S of dye in nematic liquid crystal mixture (dichroic ratio CR, homogeneously oriented measuring cell)
Type: physicochemical
settings: liquid crystal mixture ZLI 1957/5
Description: The degree of order S measured at room temperature, the solubility L likewise determined at room temperature, and the Merck liquid crystal mixtures used are summarized in Table 1 for Examples 1, 4, 5, 8, 12, 15 and 18. The values for the degree of order and the solubility which have been measured at room temperature in ZLI 2452 are summarized in Table 2 for some of the Examples 19-46. […]
// return just the number, without any unit appended

See these solved cases before continuing.
[
  {
    "molecule": "CCCCCCCCSc1nsc(N=Nc2ccc(N=Nc3ccc(N(C)CCCC)cc3)cc2)n1",
    "Degree of order S (at room temperature)": 0.72
  },
  {
    "molecule": "CCCCCCCCSc1nsc(N=Nc2cc(C)c(N=Nc3ccc(N(C)C)cc3C)cc2C)n1",
    "Degree of order S (at room temperature)": 0.73
  },
  {
    "molecule": "CCCCCCCCSc1nsc(N=Nc2cc(C)c(N=Nc3ccc(NCc4ccc(C5CCC(CCCC)CC5)cc4)c4ccccc34)cc2C)n1 (stereo not shown)",
    "Degree of order S (at room temperature)": 0.77
  }
]

Here's the next entry for you.
q: Tell me the measured Degree of order S (at room temperature) of CCCCCCCCSc1nsc(N=Nc2ccc(N=Nc3ccc(NCc4ccc(C5CCC(CCCC)CC5)cc4)c4ccccc34)cc2)n1 (stereo not shown) , please.
a: 0.79

====

method-notes: Degree of order S of dye in nematic liquid crystal mixture (dichroic ratio CR, homogeneously oriented measuring cell)
Type: physicochemical
settings: ZLI 2452 (Table 2)
recorded-endpoint: Degree of order S (at room temperature)
Please give only the number in your answer, with no unit.

q: Endpoint output: Degree of order S (at room temperature) of CCCCC(CC)CSc1nsc(N=Nc2cc(C)c(N=Nc3ccc(NCC)c4ccccc34)cc2C)n1 (stereo not shown) . Value?
a: 0.74

q: Give the measured Degree of order S (at room temperature) of CCCCCCCCCCCCNc1ccc(N=Nc2cc(C)c(N=Nc3nc(SCCCCCCCCCCCC)ns3)cc2C)c2ccccc12 .
a: 0.77

q: Report Degree of order S (at room temperature) for CCCCC1CCC(c2ccc(CNc3ccc(N=Nc4ccc(N=Nc5nc(SCC(CC)CCCC)ns5)cc4)c4ccccc34)cc2)CC1 (stereo not shown) please.
a: 0.81

q: Entry under review: CCCCCCCCSc1nsc(N=Nc2cc(C)c(N=Nc3ccc(NCc4ccc(CCCCC)cc4)c4ccccc34)cc2C)n1 . Reported Degree of order S (at room temperature)?
a: 0.80

q: Param item = CCCCCCCCCCCCN(C)c1ccc(N=Nc2cc(C)c(N=Nc3nc(CCCCCCC)ns3)cc2C)c2ccccc12 ; retrieve measured Degree of order S (at room temperature).
a: 0.77

q: Look up Degree of order S (at room temperature): CCCCCCCCSc1nsc(N=Nc2cc(C)c(N=Nc3ccc(Nc4ccc(CCCC)cc4)c4ccccc34)cc2C)n1
a: 0.71

====

method-notes: Degree of order S of dye in nematic liquid crystal mixture (dichroic ratio CR, homogeneously oriented measuring cell)
Type: physicochemical
settings: ZLI 2452 (Table 2)
As shown below, each of these molecules has a reported Degree of order S (at room temperature) value.

Solved cases below.
[
  {
    "molecule": "CCCCC1CCC(c2ccc(CNc3ccc(N=Nc4ccc(N=Nc5nc(SCC(CC)CCCC)ns5)c(C)c4)c4ccccc34)cc2)CC1 (stereo not shown)",
    "Degree of order S (at room temperature)": 0.81
  },
  {
    "molecule": "CCCCCCCCCCCCNc1ccc(N=Nc2cc(C)c(N=Nc3nc(SCCCCCCC)ns3)cc2C)c2ccccc12",
    "Degree of order S (at room temperature)": 0.79
  },
  {
    "molecule": "CCCCCCCCNc1ccc(N=Nc2cc(C)c(N=Nc3nc(SCCCCCCCC)ns3)cc2C)c2ccccc12",
    "Degree of order S (at room temperature)": 0.77
  },
  {
    "molecule": "CCCCCCCCSc1nsc(N=Nc2cc(C)c(N=Nc3ccc(NCCc4ccccc4)c4ccccc34)cc2C)n1",
    "Degree of order S (at room temperature)": 0.74
  },
  {
    "molecule": "CCCCCCCCCCCCNc1ccc(N=Nc2cc(C)c(N=Nc3nc(SC)ns3)cc2C)c2ccccc12",
    "Degree of order S (at room temperature)": 0.76
  }
]

q: Any idea what Degree of order S (at room temperature) was measured for CCCCCCCCNc1ccc(N=Nc2cc(C)c(N=Nc3nc(SCCCCCCCC)ns3)cc2C)c2ccc(C)nc12 ?
a: 0.75

q: Given the entry CCCCC1CCC(c2ccc(CNc3ccc(N=Nc4cc(C)c(N=Nc5nc(SCC(CC)CCCC)ns5)cc4C)c4ccccc34)cc2)CC1 (stereo not shown) , report its measured Degree of order S (at room temperature).
a: 0.80

Source: patent US4681699A
